pIC50 values for the compounds below.
- TARGET UNDER TEST: human TRPV4 (Homo sapiens)
- Construct: host or cells: tetracycline-inducible Flp-In T-REx 293 cells
- Sequence (Q9HBA0 whole entry): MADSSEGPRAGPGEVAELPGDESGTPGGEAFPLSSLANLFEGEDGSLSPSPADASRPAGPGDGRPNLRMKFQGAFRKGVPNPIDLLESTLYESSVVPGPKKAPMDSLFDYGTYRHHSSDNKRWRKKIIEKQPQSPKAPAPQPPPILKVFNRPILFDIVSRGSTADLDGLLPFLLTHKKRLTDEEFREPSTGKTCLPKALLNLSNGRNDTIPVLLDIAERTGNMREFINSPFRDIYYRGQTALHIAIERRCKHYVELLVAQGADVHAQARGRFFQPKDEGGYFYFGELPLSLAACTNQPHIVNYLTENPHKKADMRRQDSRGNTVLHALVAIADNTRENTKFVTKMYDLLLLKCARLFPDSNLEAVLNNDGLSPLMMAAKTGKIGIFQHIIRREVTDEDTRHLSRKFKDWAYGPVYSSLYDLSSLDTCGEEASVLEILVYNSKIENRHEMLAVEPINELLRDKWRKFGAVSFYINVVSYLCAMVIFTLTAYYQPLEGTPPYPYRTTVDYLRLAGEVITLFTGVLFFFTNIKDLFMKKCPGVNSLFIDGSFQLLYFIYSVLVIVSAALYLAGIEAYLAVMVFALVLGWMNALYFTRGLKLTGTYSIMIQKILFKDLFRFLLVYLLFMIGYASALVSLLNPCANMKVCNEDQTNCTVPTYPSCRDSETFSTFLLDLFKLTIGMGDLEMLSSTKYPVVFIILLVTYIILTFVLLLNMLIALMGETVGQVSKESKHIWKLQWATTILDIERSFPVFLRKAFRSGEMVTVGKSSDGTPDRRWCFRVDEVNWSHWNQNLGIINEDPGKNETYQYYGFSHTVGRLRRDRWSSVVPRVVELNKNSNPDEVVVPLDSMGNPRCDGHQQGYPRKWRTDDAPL
- ASSAY PROCEDURE: Hypotonicity-induced Ca2+ influx (Fluo-4, FDSS)
- Type: cell-based
- RUN CONDITIONS: Flp-In T-REx 293 cells stably expressing human TRPV4, compounds listed by potency bin (<10 nM Tables 96-1/96-2, <3 nM Table 97)
pIC50: −log10 of the molar value.

// solved cases for pIC50 follow
[[record]]
compound = "O=C([C@H](O)c1cccc(-c2ccc3c(c2)OC(F)(F)O3)c1)N1CCc2nc(C3(c4ccccc4)CC3)[nH]c(=O)c2C1"
target_under_test = "human TRPV4 (Homo sapiens)"
metric_name = "pIC50"
result = "> 8.52"

[[record]]
compound = "O=C([C@H](O)c1cccc(Cl)c1)N1CCCc2nc(C3(c4cccc(-c5ccc(F)cc5)c4)CC3)[nH]c(=O)c2C1"
target_under_test = "human TRPV4 (Homo sapiens)"
metric_name = "pIC50"
result = "> 8.52"

[[record]]
compound = "CC(C)c1csc(C2(c3nc4c(c(=O)[nH]3)CN(C(=O)C(O)c3cccc(C(C)(C)C)c3)CC4)CC2)c1 (stereo not shown)"
target_under_test = "human TRPV4 (Homo sapiens)"
metric_name = "pIC50"
result = "> 8.00"

[[record]]
compound = "O=C(C(O)c1cccc(S(F)(F)(F)(F)F)c1)N1CCCc2nc(C3(c4ccccc4)CC3)[nH]c(=O)c2C1 (stereo not shown)"
target_under_test = "human TRPV4 (Homo sapiens)"
metric_name = "pIC50"
result = "> 8.00"

[[record]]
compound = "O=C([C@H](O)c1cccc(-c2cccc(OCc3ccccc3)c2)c1)N1CCc2nc(C3(c4ccccc4)CC3)[nH]c(=O)c2C1"
target_under_test = "human TRPV4 (Homo sapiens)"
metric_name = "pIC50"
result = "> 8.00"

[[record]]
compound = "O=C([C@H](O)c1cccc(-c2cccc(C(F)(F)F)c2)c1)N1CCCc2nc(C3(c4cncc(C5CCCCC5)c4)CC3)[nH]c(=O)c2C1"
target_under_test = "human TRPV4 (Homo sapiens)"
metric_name = "pIC50"
result = "> 8.00"


--- query ---
Query block: Check the records and state pIC50 for O=C(C(O)c1cccc(-c2ccnc(C(F)(F)F)c2)n1)N1CCc2nc(C3(c4ccccc4)CC3)[nH]c(=O)c2C1 (stereo not shown)
Result block: > 8.00

Each recorded value in this set is attributed to patent US12673946B2.
